B1: PTPN9 (parent)
chain: ILFSLPPALDWDSVHVPGPHAMTI

Variants of: B1
experiment-notes: protein stability index of a GFP-peptide fusion (GPS, HEK-293T) (PSI 1-6); higher = more stable;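 also: lentivirally expressed fusions sorted by FACS into six bins by GFP to DsRed ratio, PSI derived from sequencing read proportions per bin multiplied by bin number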
reported-conditions: c terminus: a fixed tail appended
Could you please report measured protein stability index for the items listed next?
One number for each entry.

{"residue-change": "A8D", "measured-metric": "protein stability index", "experimental-result": 1.92}

Please give protein stability index, item by item, for the list that follows.
1. P17L
2. D12I
3. G18H
4. P17W
5. T23F
6. L2N
7. H15D

2.79
4.7
2.69
4.48
2.25
2.6
2.08

Please give protein stability index, item by item, for the list that follows.
1. M22E
2. S4M
3. A21D

2.55
3.28
2.71
